Reported kon values are given for each entry in this list.
# testSystem: T1, recombinant huCD30 (R&D) (Homo sapiens, UniProt P28908)
# T1 construct: recombinant human CD30 from R&D; also called rhCD30; huCD30 protein; source: bought: R&D
# T1 sequence (P28908 19-385): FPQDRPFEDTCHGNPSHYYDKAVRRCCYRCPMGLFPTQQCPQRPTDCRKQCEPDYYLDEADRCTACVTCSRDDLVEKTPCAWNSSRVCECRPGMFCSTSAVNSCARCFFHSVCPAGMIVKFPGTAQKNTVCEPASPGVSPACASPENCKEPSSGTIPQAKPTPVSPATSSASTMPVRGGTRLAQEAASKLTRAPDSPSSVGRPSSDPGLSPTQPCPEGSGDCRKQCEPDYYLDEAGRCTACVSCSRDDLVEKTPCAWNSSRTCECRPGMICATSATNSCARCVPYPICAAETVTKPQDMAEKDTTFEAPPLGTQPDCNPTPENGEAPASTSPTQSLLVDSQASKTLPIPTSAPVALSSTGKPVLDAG
# experimentNotes: SPR; BIAcore 3000, 25°C; recombinant huCD30 amine-coupled on a CM5 chip; mAbs as analyte in serial 1:2 dilutions from 20 nM; 10 mM Hepes pH 7.4, 150 mM NaCl, 0.005% P20, 0.1% BSA; 1:1 Langmuir fit
# experimentalParameters: both partners purified
Only the number, expressed in M⁻¹ s⁻¹, is required.

anti-CD30 mAb 13H1 (antibody, V domains shown, also called clone 13H1; source: mouse hybridoma (custom generated by Genscript), serum-free supernatant, purified (rProtein A GraviTrap)) VH: QVQLQQSGTELVKPGASVKLSCKASGHTFTSYWMHWVKQRPGQGLEWIGNINPSNGGTNYNEKFKSKATLTVDKSSSTAYMQLSSLTSEDSAVYYCARRGYYGSSSYWSFDVWGTGTTVTVSS VL: DIVMTQTPKSMSMSVGERVTLSCKASENVGTYVSWYQQKPEQSPKVLIYGASNRFTGVPDRFTGSGSATDFTLTISSVQTEDLADYHCGQSYSYPLTFGAGTKLELK : 708000
anti-CD30 mAb 15B8 (antibody, V domains shown, also called clone 15B8; source: mouse hybridoma (custom generated by Genscript), serum-free supernatant, purified (rProtein A GraviTrap)) VH: QVQLEQSGTELVKPGASVKLSCKASGYTFTSYWMHWVKQRPGQGLEWIGNINPSNGGTNYNEKFKSKATLTVDKSSSTAYMQLSSLTSEDSAIYYCARRNNYYASSPFAYWGQGTLVSVSA VL: DIVMTQTPASLSASVGETVTITCRASGNIHNYLAWYQQKQGKSPQLLVYNAKTLADGVPSRFSGSGSGTQYSLKINSLQPEDFGSYYCQHFWSTPFTFGSGTKLEIK : 504000
anti-CD30 mAb 12B1 (antibody, V domains shown, also called clone 12B1; source: mouse hybridoma (custom generated by Genscript), serum-free supernatant, purified (rProtein A GraviTrap)) VH: EVKLEESGTELVKPGASVKLSCKASGYTFTSYWMHWVKQRPGQGLEWIGNINPTNGGTNYNEKFKSKATLTVDKSSRTAYMQLSSLTSGDSAVYYCARRDFITTSGFAYWGQGTLVTVSA VL: DIVMTQTTASLSTSVGETVTITCRASGNLHSYLTWYQQKQGKSPQLLVYNAKTLADGVPSRFSGSGSGTQYSLKIDSLQPEDFGSYYCQHFWTTPFTFGSGTKLEIK : 61300

Now, please, on to the next binder.
Problem: Quick one: kon of anti-CD30 mAb 8D10 (antibody, V domains shown, also called clone 8D10; source: mouse hybridoma (custom generated by Genscript), serum-free supernatant, purified (rProtein A GraviTrap)) VH: QVQLQESGTELVKPGASVKLSCKASGYTFTSYWMHWMKQRPGQGLEWIGNINPSNGGTNYNEKFKNKATLTVDKSSSTAYMQLSSLTSEDSAVYYCARRDYYYGSSYGFDVWGTGTTVTVSS VL: DIVMTQSPASQSASLGESVTITCLASQTIGTWLAWYQQKPGKSPQFLIYAATSLADGVPSRFSGSGSGTKFSFKISSLQAEDFVSYYCQQLYSTPFTFGGGTKLEIK ?
Solution: 101000
